Assay: self-splicing fitness, log relative to wild type (ln ratio); higher = more splicing; Tetrahymena group I intron in knt gene, E. coli kanamycin selection, DiMSum; sequences stand for … in CUCUCU…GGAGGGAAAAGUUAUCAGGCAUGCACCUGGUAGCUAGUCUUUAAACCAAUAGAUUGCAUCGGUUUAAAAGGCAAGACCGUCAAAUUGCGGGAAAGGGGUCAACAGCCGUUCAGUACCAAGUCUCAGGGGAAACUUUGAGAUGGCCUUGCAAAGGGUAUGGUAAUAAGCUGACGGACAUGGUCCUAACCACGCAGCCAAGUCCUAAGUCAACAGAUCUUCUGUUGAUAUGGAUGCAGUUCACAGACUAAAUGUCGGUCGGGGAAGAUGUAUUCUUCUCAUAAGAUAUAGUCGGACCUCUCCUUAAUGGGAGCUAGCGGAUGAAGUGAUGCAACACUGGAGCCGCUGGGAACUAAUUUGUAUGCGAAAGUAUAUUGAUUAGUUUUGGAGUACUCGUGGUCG;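 further: selection with 25 µg/mL kanamycin versus none on LB agar overnight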
Details: 37 °C
PROPERTY LABEL: self-splicing fitness (ln)

Worked examples follow.
GACGAGCAAUAUUACGCGCG    -2.7
CGUGAGCAAUAUUACGAAUC    -2.34
CACCAGCAAUAUUACGGGUU    -1.68

Endpoint output: self-splicing fitness (ln) of CCGCAGCAAUAUUACGAGCG . Value?
-0.494

// next record GGGAAGCAAUAUUACGCGUG
-0.978

====

Test: self-splicing fitness, log relative to wild type (ln ratio); higher = more splicing; Tetrahymena group I intron in knt gene, E. coli kanamycin selection, DiMSum; sequences stand for … in CUCUCU…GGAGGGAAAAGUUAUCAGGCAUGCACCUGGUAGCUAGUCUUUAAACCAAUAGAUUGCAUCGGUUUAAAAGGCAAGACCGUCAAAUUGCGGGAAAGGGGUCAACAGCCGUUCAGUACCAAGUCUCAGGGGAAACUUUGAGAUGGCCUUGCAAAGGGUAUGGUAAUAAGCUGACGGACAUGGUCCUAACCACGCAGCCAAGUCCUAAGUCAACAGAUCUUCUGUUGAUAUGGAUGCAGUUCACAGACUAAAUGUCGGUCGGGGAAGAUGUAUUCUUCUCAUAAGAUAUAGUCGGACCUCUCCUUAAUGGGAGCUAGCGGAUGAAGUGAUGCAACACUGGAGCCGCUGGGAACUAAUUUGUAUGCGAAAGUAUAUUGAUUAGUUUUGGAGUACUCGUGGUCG
Settings: 37 °C
Mark class 1 for reported self-splicing fitness (ln) of -2 or greater; mark class 0 for anything smaller.

Study these solved cases before continuing.
CUCCAGCAAUAUUACGAUCG    class 1
CCCUAGCAAUAUUACGGUAG    class 0
UGGCAGCAAUAUUACGCCCG    class 1
GUAGAGCAAUAUUACGCGGA    class 1

Now examine the next entry.
Hi team, for UUCUAGCAAUAUUACGAGUU , is the recorded self-splicing fitness (ln) at or above -2?
class 1

====

Test: self-splicing fitness, log relative to wild type (ln ratio); higher = more splicing; Tetrahymena group I intron in knt gene, E. coli kanamycin selection, DiMSum; sequences stand for … in CUCUCU…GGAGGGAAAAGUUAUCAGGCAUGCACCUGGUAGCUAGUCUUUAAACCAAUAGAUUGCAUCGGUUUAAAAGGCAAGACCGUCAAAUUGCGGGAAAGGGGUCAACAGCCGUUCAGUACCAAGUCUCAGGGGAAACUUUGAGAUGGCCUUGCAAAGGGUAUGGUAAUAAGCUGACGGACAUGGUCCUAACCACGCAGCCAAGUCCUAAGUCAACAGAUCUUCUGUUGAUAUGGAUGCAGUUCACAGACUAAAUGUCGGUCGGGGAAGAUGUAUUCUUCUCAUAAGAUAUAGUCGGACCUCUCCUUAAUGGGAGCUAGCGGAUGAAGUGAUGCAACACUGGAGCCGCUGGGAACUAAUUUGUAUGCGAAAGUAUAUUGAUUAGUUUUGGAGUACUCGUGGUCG
Conditions: 30 °C
PROPERTY LABEL: self-splicing fitness (ln)
Give the figure by itself; no unit, no explanation.

GUAAAGCAAUAUUACGUUAU    -2.57
GUUGAGCAAUAUUACGGUAC    -3.45
AAGAAGCAAUAUUACGUGGC    -4.15

Please look at the following sequence next.
Endpoint output: self-splicing fitness (ln) of GCCAAGCAAUAUUACGGGAA . Value?
-0.356

====

Listing: self-splicing fitness (ln) of selected sequences
Experiment: self-splicing fitness, log relative to wild type (ln ratio); higher = more splicing; Tetrahymena group I intron in knt gene, E. coli kanamycin selection, DiMSum; sequences stand for … in CUCUCU…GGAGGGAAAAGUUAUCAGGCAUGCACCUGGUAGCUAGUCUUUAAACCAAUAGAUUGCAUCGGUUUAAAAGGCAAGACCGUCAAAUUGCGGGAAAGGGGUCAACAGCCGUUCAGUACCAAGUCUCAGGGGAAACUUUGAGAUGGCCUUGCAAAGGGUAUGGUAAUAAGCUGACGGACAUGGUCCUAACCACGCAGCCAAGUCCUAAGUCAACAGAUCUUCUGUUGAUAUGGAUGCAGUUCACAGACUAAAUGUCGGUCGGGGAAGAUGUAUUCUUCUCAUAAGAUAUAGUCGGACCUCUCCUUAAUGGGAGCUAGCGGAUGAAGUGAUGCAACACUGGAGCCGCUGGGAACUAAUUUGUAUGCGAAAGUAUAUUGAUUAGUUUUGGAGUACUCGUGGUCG
Conditions: 30 °C
Give the figure by itself; no unit, no explanation.

Worked examples follow.
GCGAAGCAAUAUUACGGGGU    -3.89
CGCUAGCAAUAUUACGCUUC    -2.39
GAAGAGCAAUAUUACGCGCG    -2.21
AUUUAGCAAUAUUACGAGGU    -3.21
CUAUAGCAAUAUUACGCGCU    -4.04

Endpoint output: self-splicing fitness (ln) of AGAAAGCAAUAUUACGGAUU . Value?
-2.21

// next record AUAAAGCAAUAUUACGGAGG
-3.18

// next record AUACAGCAAUAUUACGUAGA
-2.11

// next record AACUAGCAAUAUUACGUGUU
-2.68

// next record AAUUAGCAAUAUUACGAAUC
-2.34

// next record CUGUAGCAAUAUUACGGUGC
-3.58

// next record GCUCAGCAAUAUUACGGCAG
-2.91

====

Experiment: self-splicing fitness, log relative to wild type (ln ratio); higher = more splicing; Tetrahymena group I intron in knt gene, E. coli kanamycin selection, DiMSum; sequences stand for … in CUCUCU…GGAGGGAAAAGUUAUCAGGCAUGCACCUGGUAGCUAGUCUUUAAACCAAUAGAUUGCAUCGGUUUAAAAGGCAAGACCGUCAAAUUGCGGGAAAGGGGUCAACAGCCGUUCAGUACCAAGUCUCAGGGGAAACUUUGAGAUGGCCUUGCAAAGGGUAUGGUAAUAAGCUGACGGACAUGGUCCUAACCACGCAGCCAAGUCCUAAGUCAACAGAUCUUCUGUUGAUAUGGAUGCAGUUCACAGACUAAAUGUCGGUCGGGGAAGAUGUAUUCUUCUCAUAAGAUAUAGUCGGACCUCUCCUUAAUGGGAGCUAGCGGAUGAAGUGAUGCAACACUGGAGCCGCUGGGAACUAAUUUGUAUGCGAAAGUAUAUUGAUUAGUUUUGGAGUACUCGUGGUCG
Settings: 30 °C
Entries are sorted into classes by self-splicing fitness (ln) as follows: b0: < -3; b1: ≥ -3 and < -2; b2: ≥ -2

CUCUAGCAAUAUUACGCCAG    b1

Looking at UCCAAGCAAUAUUACGGGCA , which class would you pick?
b2

// next record GACGAGCAAUAUUACGUAAC
b0

====

Assay: self-splicing fitness, log relative to wild type (ln ratio); higher = more splicing; Tetrahymena group I intron in knt gene, E. coli kanamycin selection, DiMSum; sequences stand for … in CUCUCU…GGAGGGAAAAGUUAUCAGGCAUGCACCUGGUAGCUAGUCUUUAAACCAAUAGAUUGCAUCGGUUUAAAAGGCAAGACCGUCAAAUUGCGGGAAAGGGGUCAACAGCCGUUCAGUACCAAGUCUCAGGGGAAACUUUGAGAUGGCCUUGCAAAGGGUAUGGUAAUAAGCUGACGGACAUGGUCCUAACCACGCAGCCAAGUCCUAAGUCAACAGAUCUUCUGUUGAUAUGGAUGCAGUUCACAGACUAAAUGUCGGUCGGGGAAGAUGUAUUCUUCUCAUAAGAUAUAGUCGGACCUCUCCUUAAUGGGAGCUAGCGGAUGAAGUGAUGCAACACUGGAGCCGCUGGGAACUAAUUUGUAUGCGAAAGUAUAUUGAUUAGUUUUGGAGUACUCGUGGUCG
Conditions: 30 °C
Listing: self-splicing fitness (ln) of selected sequences
Give the figure by itself; no unit, no explanation.

AUUUAGCAAUAUUACGGCGG    -2.31

Endpoint output: self-splicing fitness (ln) of UGUGAGCAAUAUUACGCCAA . Value?
-1.67

// next record ACGUAGCAAUAUUACGACCC
-0.864

// next record CACUAGCAAUAUUACGAACU
-2.65

// next record UCCAAGCAAUAUUACGACGA
-0.735

// next record UGAUAGCAAUAUUACGGGGU
-2.68
